- measurement_description: basal RPMI8226 viability, no added stimulus, profiling panel, cell-based, calcein-AM fluorescence, 48 h, PK04 Diversity Set (AID 1166);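 note: cells grown under basal conditions without added stimulus; test concentration not given here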
- measurement_context: RPMI8226 myeloma viability, higher = more signal
Give z-score for every item shown.
Numbers only.

Here's what some known entries look like.
compound	z-score
CCCCc1cn(C[C@H](Cc2ccccc2)NC(=O)N[C@H](CO)CCc2oc(C(C)=O)c(C(=O)OC)c2C(=O)OC)nn1	-1.22
CCCCCN1CC=CC23O[C@@H]4/C=C\CCCOC(=O)C4[C@H]2C(=O)N(C(CO)C(C)C)[C@@H]3C1=O (stereo partly drawn)	0.108

// moving on: another record for z-score
QUERY: // query z-score value for entry `COCCOC(=O)N1C(=O)[C@@]2(c3cc(C#CCCO)ccc31)[C@H](C(=O)N1CCc3cc(OC)c(OC)cc3C1)[C@H]1C(=O)O[C@H](c3ccccc3)[C@H](c3ccccc3)N1[C@@H]2c1ccc(O)cc1`
RESULT: 0.245

====

- measurement_description: fission yeast growth modulation, primary screen, strain 972, OD600, 24 h, no modulator (AID 1090);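 note: basal condition with compound alone and no growth modifier present; test concentration not given here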
- measurement_context: S. pombe 972 growth, higher = more signal, called active from +8 up or from −8 down
z-score of -1 or higher: true (1). Under -1: false (0).

Past entries and their recorded results:
compound	classification
CCOC(=O)C=Cc1cc([N+](=O)[O-])ccc1O	true (1)
CN1C(=O)C2C=CC(C(O)c3ccccc3)N(Nc3ccccc3)C2C1=O (configuration not stated)	true (1)

QUERY: Would you say `COc1cc2c(cc1OC)CN(C(=O)[C@H]1[C@@H]3C(=O)O[C@@H](c4ccccc4)[C@@H](c4ccccc4)N3[C@@H](c3ccc(O)cc3)[C@]13C(=O)Nc1ccc(C#CCNC(N)=O)cc13)CC2` shows z-score at minimum -1?
RESULT: true (1)

QUERY: Is it the case that `C=C(COC)/C(=C/C[C@H](OC(=O)c1ccncc1)c1ccc(OCCO)cc1)c1cnc2ccccc2c1` has z-score reaching or exceeding -1?
RESULT: false (0)

QUERY: Dear colleague, could you confirm whether `C=CCOC(=O)[C@H]1[C@@H]2C(=O)O[C@@H](c3ccccc3)[C@@H](c3ccccc3)N2[C@@H](c2ccc(OCCOC(=O)[C@@H]3C[C@@H]4C(=O)N[C@@H](CCCC[N+](C)(C)C)C(=O)N4[C@@H]3c3ccc(O)cc3)cc2)[C@]12C(=O)Nc1ccccc12` has z-score at or above -1?
RESULT: false (0)

QUERY: Decide: is the reported value of z-score for O=C1OCCC/C=C\[C@H]2OC34C=CCN(Cn5nnc6ccccc65)C(=O)[C@H]3N(CCCCCCO)C(=O)[C@@H]4C12 (some centres not stated) equal to or greater than -1?
RESULT: true (1)

====

Kindly state composite z-score for each of the entries shown.
- experimental_system: Streptavidin (Streptomyces avidinii) (UniProt P22629)
- Sequence (P22629 whole entry, looked up): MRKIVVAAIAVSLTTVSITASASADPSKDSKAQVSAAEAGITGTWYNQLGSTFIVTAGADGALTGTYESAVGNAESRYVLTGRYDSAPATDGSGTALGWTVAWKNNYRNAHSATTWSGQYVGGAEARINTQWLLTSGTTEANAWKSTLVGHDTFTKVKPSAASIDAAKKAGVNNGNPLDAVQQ
- measurement_description: streptavidin binders on small-molecule microarray, primary screen, artefact control for SMM compound annotation, biophysical, 635/667 nm fluorescence (AID 1147);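 note: signal reflects streptavidin binding to arrayed compounds as a control protein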
- measurement_context: streptavidin binding, higher = more signal
Numbers only.

Consider the worked cases shown below.
compound	numeric_value
COCCOC(=O)N1C(=O)[C@@]2(c3cc(C#Cc4ccc(OC)cc4)ccc31)[C@H](C(=O)N1CCCCCCC1)[C@H]1C(=O)O[C@H](c3ccccc3)[C@H](c3ccccc3)N1[C@@H]2c1ccc(OCCO)cc1	1.67
CN(C)CCCCCCNC(=O)[C@@H]1C[C@@H]2C(=O)N[C@@H](CCCCN)C(=O)N2[C@@H]1c1cccc(OCCO)c1	3.03

State recorded composite z-score for all listed compounds.
1. Cc1ccc(C(C)CC(O)C2C=CC3C(=O)N(c4ccccc4)C(=O)C3N2Nc2ccc([N+](=O)[O-])cc2)o1 (stereo unspecified)
2. COC(=O)[C@@]1(Cc2ccc(OC)cc2)[C@H]2c3cc(C(=O)N4CCCC4)n(Cc4ccsc4Br)c3C[C@H]2CN1C(=O)c1ccccc1
3. COCCOC(=O)N1C(=O)[C@@]2(c3cc(C#CC4=CCCCC4)ccc31)[C@H](C(=O)Nc1nc3ccccc3s1)[C@H]1C(=O)O[C@H](c3ccccc3)[C@H](c3ccccc3)N1[C@@H]2c1ccc(OCCO)cc1
4. O=C1O[C@H](c2ccccc2)[C@H](c2ccccc2)N2[C@H]1[C@@H](C(=O)NC[C@H](O)c1ccccc1)[C@]1(C(=O)Nc3ccccc31)[C@H]2c1ccc(OCCO)cc1

RESULT:
1. 1.71
2. 0.161
3. 0.986
4. 0.261
